Values from patent US20140112915A1

Target: T1, Recombinant human IL-18 (human, UniProt Q14116 37-193)
T1 sequence: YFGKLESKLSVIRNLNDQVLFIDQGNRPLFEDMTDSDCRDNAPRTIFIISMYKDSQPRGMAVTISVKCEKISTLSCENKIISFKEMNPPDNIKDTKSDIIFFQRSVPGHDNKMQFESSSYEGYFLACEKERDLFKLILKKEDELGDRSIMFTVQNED
Assay: cell-based or functional assay
measured-attribute: IC50, inhibition of IFN-γ release, KG-1 cells, Hu IL-18 (1 nM)

INSERT INTO measurements (binder, assay_result) VALUES
  ('MOR9464_N30K (antibody, human IgG1, lambda, L234A L235A, V domains shown, also called MOR09464_N30K) VH: EVQLVQSGAEVKKPGSSVKVSCKASGGTFKSYAISWVRQAPGQGLEWMGNIIPMTGQTYYAQKFQGRVTITADESTSTAYMELSSLRSEDTAVYYCARAAYHPLVFDNWGQGTLVTVSS VL: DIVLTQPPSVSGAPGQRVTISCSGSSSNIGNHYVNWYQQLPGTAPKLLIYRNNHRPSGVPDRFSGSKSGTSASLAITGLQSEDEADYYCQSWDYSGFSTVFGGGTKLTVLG', 0.36),
  ('MOR09464 (antibody, human IgG1, lambda, L234A L235A, V domains shown, also called MOR9464) VH: EVQLVQSGAEVKKPGSSVKVSCKASGGTFNSYAISWVRQAPGQGLEWMGNIIPMTGQTYYAQKFQGRVTITADESTSTAYMELSSLRSEDTAVYYCARAAYHPLVFDNWGQGTLVTVSS VL: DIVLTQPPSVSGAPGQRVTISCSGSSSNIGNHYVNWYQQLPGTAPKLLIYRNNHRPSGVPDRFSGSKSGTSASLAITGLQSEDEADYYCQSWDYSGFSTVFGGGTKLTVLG', 0.8);
